# Stability, -20℃ freeze-thaw (3 times, %) per entry
assay: Stability tests for target pentacyclic triterpenoid acids; conditions: nominal level 20.48 nmol/L
Give the quantity in %, number only.

Worked cases, Stability, -20℃ freeze-thaw (3 times, %) given:
C=C(C)[C@@H]1CC[C@]2(C(=O)O)CC[C@]3(C)[C@H](CC[C@@H]4[C@@]5(C)CC[C@@H](O)C(C)(C)[C@@H]5CC[C@]43C)[C@@H]12 [epibetulinic acid]	106.94
CC1(C)CC[C@]2(C(=O)O)CC[C@]3(C)C(=CC[C@@H]4[C@@]5(C)CC[C@H](O)C(C)(C)[C@@H]5CC[C@]43C)[C@@H]2C1	105.51
CC1(C)CC[C@]2(C(=O)O)CC[C@]3(C)C(=CC[C@@H]4[C@@]5(C)CCC(=O)C(C)(C)[C@@H]5CC[C@]43C)[C@@H]2C1	109.44

# input for lookup
Problem: Using the record for C=C(C)[C@@H]1CC[C@]2(C(=O)O)CC[C@]3(C)[C@H](CC[C@@H]4[C@@]5(C)CC[C@H](O)C(C)(C)[C@@H]5CC[C@]43C)[C@@H]12 , report its Stability, -20℃ freeze-thaw (3 times, %).
Solution: 99.04

====

assay: Pharmacokinetic interaction between Styrax and midazolam (i.v. and i.g.) in rats; conditions: male, Sprague-Dawley, rat, plasma, iv, 5 mg/kg, Cmax, rats; midazolam i.v. 5 mg/kg; pretreated with Styrax i.g. 100 mg/kg
readout: Cmax (ng/mL)
Give the value in ng/mL but do not write ng/mL after it.

Problem: Recorded Cmax of Cc1ncc2n1-c1ccc(Cl)cc1C(c1ccccc1F)=NC2 , please.
Solution: 3370

====

test: Tissue distribution of PTAs of Styrax in rats; details: after single oral dose of Styrax (100 mg/kg)
readout: exposure in rat plasma and rat liver

// worked examples, exposure in rat plasma and rat liver included
CC1(C)CC[C@]2(C(=O)O)CC[C@]3(C)C(=CC[C@@H]4[C@@]5(C)CCC(=O)C(C)(C)[C@@H]5CC[C@]43C)[C@@H]2C1 [oleanonic acid]	very low exposure levels
CC1(C)CC[C@]2(C(=O)O)CC[C@]3(C)C(=CC[C@@H]4[C@@]5(C)C[C@@H](O)[C@H](O)C(C)(C)[C@@H]5CC[C@]43C)[C@@H]2C1 [maslinic acid]	could not be detected
CC1(C)CC[C@]2(C(=O)O)CC[C@]3(C)C(=CC[C@@H]4[C@@]5(C)CC[C@H](O)C(C)(C)[C@@H]5CC[C@]43C)[C@@H]2C1 [oleanolic acid]	very low exposure levels
C=C(C)[C@@H]1CC[C@]2(C(=O)O)CC[C@]3(C)[C@H](CC[C@@H]4[C@@]5(C)CC[C@@H](O)C(C)(C)[C@@H]5CC[C@]43C)[C@@H]12 [epibetulinic acid]	very low exposure levels

With those in mind, consider the next compound.
Problem: // query exposure in rat plasma and rat liver value for entry C=C(C)[C@@H]1CC[C@]2(C(=O)O)CC[C@]3(C)[C@H](CC[C@@H]4[C@@]5(C)CC[C@H](O)C(C)(C)[C@@H]5CC[C@]43C)[C@@H]12 [betulinic acid]
Solution: could not be detected

====

assay: Stability tests for target pentacyclic triterpenoid acids; conditions: nominal level 3.28 nmol/L
Listed here are compounds together with their documented Stability, -20℃ freeze-thaw (3 times, %).
Record the result as number plus unit.

CC1(C)CC[C@]2(C(=O)O)CC[C@]3(C)C(=CC[C@@H]4[C@@]5(C)CC[C@H](O)C(C)(C)[C@@H]5CC[C@]43C)[C@@H]2C1	103.79%
C=C(C)[C@@H]1CC[C@]2(C(=O)O)CC[C@]3(C)[C@H](CC[C@@H]4[C@@]5(C)CC[C@@H](O)C(C)(C)[C@@H]5CC[C@]43C)[C@@H]12 [epibetulinic acid]	109.83%
C=C(C)[C@@H]1CC[C@]2(C(=O)O)CC[C@]3(C)[C@H](CC[C@@H]4[C@@]5(C)CC[C@H](O)C(C)(C)[C@@H]5CC[C@]43C)[C@@H]12	104.81%

Then this compound:
Problem: Data request, read-out Stability, -20℃ freeze-thaw (3 times, %), for CC1(C)CC[C@]2(C(=O)O)CC[C@]3(C)C(=CC[C@@H]4[C@@]5(C)CCC(=O)C(C)(C)[C@@H]5CC[C@]43C)[C@@H]2C1
Solution: 91.69%
